Tested on: HCT-116
Experiment: NCI tumour cell line growth inhibition, 48 h
Activity calls are given as the source filed them. Cut-off read from the data, not from the text of the source: active = GI50 up to about 1.1 µM and inactive = higher.
Measured Attribute: GI50

Reference set (7 entries):
COc1cc(OC)cc(OCc2nc3cc(C(F)(F)F)ccc3nc2-c2ccccc2)c1 :: > 100 µM (inactive)
Cc1nc(Cl)c(C)c(Cl)n1 :: > 100 µM (inactive)
CSC1=C(C#N)C(=S)N=C(N)C1C(=O)Nc1ccc(C)cc1 (stereo not drawn) :: 81.5 µM (inactive)
N=C1OC(c2cccc(Cl)c2)C(NNS(=O)(=O)c2ccccc2)=C1O (stereo not drawn) :: 21.3 µM (inactive)
CN(C)C(=S)Oc1ccc2ccc(=O)oc2c1 :: > 100 µM (inactive)
Nn1c(CCCCCCCCc2nnc(COc3ccccc3)n2N)nnc1COc1ccccc1 :: > 100 µM (inactive)
CC1(C)CN(c2ccccc2)C(=O)C1OC(=O)[C@@]1(C)C[C@@H]2C=C[C@H]1C2 (stereo partly drawn) :: 19.5 µM (inactive)

Request: Name the reported GI50 value associated with the molecule CC1=C2C(c3ccccc3)(c3ccccc3)C3C=CC2(C=N3)N(C(=O)NC2CCCCC2)C1=O (stereo not drawn)
Response: 16 µM (inactive)
